Listing of entries alongside the reported composite z-score.
# target.or.system: Pro-neuregulin-1, membrane-bound isoform (Homo sapiens)
# experiment: NRG1 binders on small-molecule microarrays, primary screen, psychiatric disease protein project, biochemical, small-molecule microarray, fluorescence 635/667 (AID 1075);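 note: score combines 667 nm spot fluorescence with signal to noise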
# reported.conditions: NRG1 binding, 635 nm fluorescence, higher = more signal

Below are worked cases with known answers.
molecule: O=C1O[C@H](c2ccccc2)[C@H](c2ccccc2)N2[C@H]1[C@@H](C(=O)O)[C@]1(C(=O)Nc3ccc(C#CC4(O)CCCCCC4)cc31)[C@H]2c1ccc(OCCO)cc1
composite z-score: 1.85
--
molecule: NCCCCCCNC(=O)[C@H]1C[C@H]2C(=O)NCC(=O)N2[C@H]1c1cccc(OCCO)c1
composite z-score: 0.933
--
molecule: COC(=O)c1ccc(C23CC2(C(NP(=O)(c2ccccc2)c2ccccc2)c2ccccc2)C3)cc1 (stereo not given)
composite z-score: 2.26
--
molecule: CC(C)(C)OC(=O)CC[C@@]1(C(=O)O)N=C(c2ccc(OCCCO)cc2)O[C@@H]1c1ccccc1N=[N+]=[N-]
composite z-score: 1
--
molecule: CCOC(=O)C[C@H]1[C@H](OC(=O)c2ccc(C(=O)c3ccccc3)cc2)[C@@H](NC(=O)C2CCCCC2)c2cc(OCCCO)ccc2N1C(=O)c1ccccc1
composite z-score: 0.857

What does the record list as composite z-score for O=C1O[C@H](c2ccccc2)[C@H](c2ccccc2)N2[C@H]1[C@@H](C(=O)N1CCN(c3ncccn3)CC1)[C@]1(C(=O)Nc3ccccc31)[C@H]2c1ccc(OCCO)cc1 ?
0.0248

Again, but for COc1c(C)cc(-c2cc3c(c(-c4ccc(Oc5ccccc5)cc4)n2)[Si](C(C)C)(C(C)C)OC3)cc1C
-0.0614

Again, but for CC(=O)C1=CCC(c2ccccc2)N(S(=O)(=O)c2ccc(C)cc2)C1 (stereo not given)
0.628

Again, but for CCOC(=O)[C@H]1C/C=C/C[C@H](C(=O)OCC)C(=O)O[C@H]2[C@@H](OC)O[C@H](CO)[C@@H](OC(=O)Nc3ccc4c(c3)OCO4)[C@@H]2OC1=O
1.5

Again, but for C#CCN(C(/C=C/c1ccccc1)CO)C(C(=O)O)c1ccccc1 (stereo not given)
-0.165

Again, but for N#Cc1ccc(NN2C(C(O)c3ccc([N+](=O)[O-])cc3)C=CC3C(=O)N(c4ccccc4)C(=O)C32)cc1 (stereo not given)
1.66

Again, but for O=c1cccc(CCc2ccccc2)o1
0.93

Again, but for COCCOC(=O)N1C(=O)[C@@]2(c3cc(C#CCC(C(=O)OC)C(=O)OC)ccc31)[C@H](C(=O)N1CCN(c3ncccn3)CC1)[C@H]1C(=O)O[C@H](c3ccccc3)[C@H](c3ccccc3)N1[C@@H]2c1ccc(OCCO)cc1
0.386

Again, but for CC(C)C(O)C1C=CC2C(=O)N(c3ccccc3)C(=O)C2N1Nc1ccc(C#N)cc1 (stereo not given)
1.72

Again, but for COc1cc(C(O)C2C=CC3C(=O)N(c4ccccc4)C(=O)C3N2Nc2ccc(C#N)cc2)cc(OC)c1OC (stereo not given)
2.18

---

# Tested on: Inhibin beta A chain (activin A)
# experiment: INHBA (activin A) binders on microarrays, primary screen, biochemical, small-molecule microarray, 635 nm fluorescence scan (AID 1107);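 note: mouse activin A protein probed at 4.33 µg/mL on printed slides; score merges bound-protein fluorescence near 667 nm with spot signal-to-noise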
# reported.conditions: small-molecule microarray binding, higher = more signal
endpoint.name: composite z-score
Form field (numeric): enter value without unit.

compound: CC=CC(O)C1C=CC2C(=O)N(c3ccccc3)C(=O)C2N1Nc1ccc(C(C)C)cc1 (configuration not stated)
target.or.system: Inhibin beta A chain (activin A)
composite z-score: 0.841

What does the record list as composite z-score for COC(=O)C(CC#Cc1ccc2c(c1)[C@]1(C(=O)N2)[C@H](c2ccc(OCCO)cc2)N2[C@H](c3ccccc3)[C@H](c3ccccc3)OC(=O)[C@H]2[C@@H]1C(=O)NC[C@H](O)c1ccccc1)C(=O)OC ?
0.39

Again, but for Cc1ccc(S[C@]2(C(=O)O)CC(=O)N(C3Cc4ccccc4C3)[C@@H]2c2ccc(CO)cc2I)cc1
1.11

Again, but for COC(=O)[C@@]1(Cc2ccccc2)[C@H]2c3cc(C(=O)N4CCCC4)n(Cc4ccc(C)o4)c3C[C@H]2CN1C(=O)c1ccccc1
1.23

Again, but for COc1ccccc1CN1C(=O)c2ccccc2[C@@H](C(=O)NCCN2CCOCC2)[C@@H]1c1ccc(CO)cc1
0.52
